# pEC50 values compiled below
# Measurement target: T1, human MSLN-R3 on HEK293T-hMSLN-R3 recombinant cells (human, UniProt Q13421 487-606)
# T1 construct: the C-terminal limit is uncertain; also called human MSLN-R3 membrane protein
# T1 sequence (Q13421 495-614): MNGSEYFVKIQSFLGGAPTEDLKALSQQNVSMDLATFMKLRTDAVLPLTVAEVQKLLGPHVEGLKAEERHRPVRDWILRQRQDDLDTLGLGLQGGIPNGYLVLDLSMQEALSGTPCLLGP
# Protocol summary: FACS, HEK293T-hMSLN-R3 cells
pEC50: −log10 of the molar value.

{"Binder": "F2.23.12-H13 (scFv, not shown: small tags and cut ends, also called S009-F2.23.12 humanized antibody VH4 + VL1) scFv: EVQLVQSGAEVKKPGASVKVSCKASGYTFTNYWMHWVRQAPGQGLEWMGNINPSQGGPYYNERFRSRVTMTVDKSTSTAYMELSSLRSEDTAVYYCARPYYGSSYGYFDYWGQGTTVTVSSGGGGSGGGGSGGGGSDIQMTQSPSSLSASVGDRVTITCKASQDINKYIAWYQQKPGKAPKLLIHYTSELQPGVPSRFSGSGSGTDFTFTISSLQPEDIATYYCLQYANPLRTFGGGTKVEIK", "pEC50": 8.08}
{"Binder": "F2.39.3-H2 (scFv, not shown: small tags and cut ends, also called S009-F2.39.3 humanized antibody VH1 + VL2) scFv: EVQLVQSGAEVKKPGASVKVSCKASGYTFTNYWMHWVRQAPGQGLEWMGNINPSSGDSYYNERFMSRVTMTVDKSTSTVYMELSSLRSEDTAVYYCARSGGLWLAFWGQGTLVTVSSGGGGSGGGGSGGGGSDIVMTQSPDSLAVSLGERATINCKSSQTLLNSVSQNNYLAWYQQKPGQSPTLLIYFASTRESGVPDRFSGSGSGTDFTLTISSLQAEDVAVYYCQQHYRTPYTFGGGTKVEIK", "pEC50": 8.20}
{"Binder": "F2.23.12-H4 (scFv, not shown: small tags and cut ends, also called S009-F2.23.12 humanized antibody VH1 + VL4) scFv: EVQLVQSGAEVKKPGASVKVSCKASGYTFTNYWMHWVRQAPGQGLEWMGNINPSNGGPYYNERFRSRVTMTVDKSTSTVYMELSSLRSEDTAVYYCARPYYGSSYGYFDYWGQGTTVTVSSGGGGSGGGGSGGGGSDIQMTQSPSSLSASVGDRVTITCKASQDINKYIAWYQHKPGKAPKLLIHYTSELQPGVPSRFSGSGSGRDYTFTISSLQPEDIATYYCLQYANPLRTFGGGTKVEIK", "pEC50": 8.57}
